protein stability index: recorded values
B1: ZNF263 (parent)
chain: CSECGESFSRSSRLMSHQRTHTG

- Variants of: B1
- Procedure summary: protein stability index of a GFP-peptide fusion (GPS, HEK-293T) (PSI 1-6); higher = more stable;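 note: lentivirally expressed fusions sorted by FACS into six bins by GFP to DsRed ratio, PSI derived from sequencing read proportions per bin multiplied by bin number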
- Particulars: c terminus: native

>  <Mutation name>
T20A

>  <protein stability index>
3.7

$$$$
>  <Mutation name>
G23P

>  <protein stability index>
4.52

$$$$
>  <Mutation name>
R19V

>  <protein stability index>
2.73

$$$$
>  <Mutation name>
M15L

>  <protein stability index>
3.13

$$$$
>  <Mutation name>
G5V

>  <protein stability index>
1.03

$$$$
>  <Mutation name>
M15E

>  <protein stability index>
3.72

$$$$
>  <Mutation name>
H21T

>  <protein stability index>
1.6

$$$$
>  <Mutation name>
S7E

>  <protein stability index>
3.51

$$$$
>  <Mutation name>
G5N

>  <protein stability index>
2.2

$$$$
>  <Mutation name>
S7M

>  <protein stability index>
3.59

$$$$
>  <Mutation name>
F8R

>  <protein stability index>
2.2

$$$$
>  <Mutation name>
T22M

>  <protein stability index>
3.83

$$$$
>  <Mutation name>
F8S

>  <protein stability index>
2.11

$$$$
>  <Mutation name>
C4G

>  <protein stability index>
1.82

$$$$
>  <Mutation name>
M15T

>  <protein stability index>
2.54

$$$$
>  <Mutation name>
G5E

>  <protein stability index>
1.41

$$$$
>  <Mutation name>
S16N

>  <protein stability index>
2.14

$$$$
>  <Mutation name>
L14M

>  <protein stability index>
1.87

$$$$
>  <Mutation name>
T20Y

>  <protein stability index>
2.08

$$$$
>  <Mutation name>
S12N

>  <protein stability index>
2.52

$$$$
>  <Mutation name>
R10Q

>  <protein stability index>
3.85

$$$$
>  <Mutation name>
C1I

>  <protein stability index>
2.1

$$$$
>  <Mutation name>
S7N

>  <protein stability index>
2.64

$$$$
>  <Mutation name>
S9P

>  <protein stability index>
1.74

$$$$
>  <Mutation name>
H21M

>  <protein stability index>
1.45

$$$$
>  <Mutation name>
L14D

>  <protein stability index>
2.74

$$$$
>  <Mutation name>
S12F

>  <protein stability index>
1.86

$$$$
>  <Mutation name>
F8Q

>  <protein stability index>
2.16

$$$$
>  <Mutation name>
H17T

>  <protein stability index>
1.46

$$$$
>  <Mutation name>
H17W

>  <protein stability index>
3.17

$$$$
>  <Mutation name>
R10I

>  <protein stability index>
2.95

$$$$
>  <Mutation name>
G23W

>  <protein stability index>
3.79

$$$$
>  <Mutation name>
S2R

>  <protein stability index>
2.92

$$$$
>  <Mutation name>
T20H

>  <protein stability index>
3.72

$$$$
>  <Mutation name>
S12D

>  <protein stability index>
4.42

$$$$
>  <Mutation name>
S16M

>  <protein stability index>
4.14

$$$$
>  <Mutation name>
T22E

>  <protein stability index>
3.76

$$$$
>  <Mutation name>
S16F

>  <protein stability index>
2.28

$$$$
>  <Mutation name>
G23I

>  <protein stability index>
4.41

$$$$
>  <Mutation name>
R13M

>  <protein stability index>
4.03

$$$$
>  <Mutation name>
S2T

>  <protein stability index>
2.54

$$$$
>  <Mutation name>
R13Q

>  <protein stability index>
4.66

$$$$
>  <Mutation name>
H17D

>  <protein stability index>
2.52

$$$$
>  <Mutation name>
T22V

>  <protein stability index>
3.03

$$$$
>  <Mutation name>
E6M

>  <protein stability index>
3.42

$$$$
>  <Mutation name>
T20N

>  <protein stability index>
1.93

$$$$
>  <Mutation name>
C1Q

>  <protein stability index>
2.46

$$$$
>  <Mutation name>
T22D

>  <protein stability index>
4.27

$$$$
>  <Mutation name>
S16V

>  <protein stability index>
3.49

$$$$
>  <Mutation name>
M15P

>  <protein stability index>
1.72

$$$$
>  <Mutation name>
S9T

>  <protein stability index>
2.98

$$$$
>  <Mutation name>
R13T

>  <protein stability index>
4.34

$$$$
>  <Mutation name>
G23H

>  <protein stability index>
3.59

$$$$
>  <Mutation name>
F8W

>  <protein stability index>
3.15

$$$$
>  <Mutation name>
C4N

>  <protein stability index>
2.11

$$$$
>  <Mutation name>
C1S

>  <protein stability index>
2.14

$$$$
>  <Mutation name>
R19I

>  <protein stability index>
2.58

$$$$
>  <Mutation name>
R10V

>  <protein stability index>
3.48

$$$$
>  <Mutation name>
S9R

>  <protein stability index>
2.37

$$$$
>  <Mutation name>
Q18Y

>  <protein stability index>
2.39

$$$$
